Reference source: BigSolDB 2.1

- CONDITION_LABEL: in acetic acid, 298.17 K
READOUT_LABEL: solubility (mole fraction)
Give bare numbers.

Please give solubility (mole fraction) for each item listed below.
1. O=P1(O)OCC2(CO1)COP(=O)(O)OC2 (configuration not stated)
2. O=C(O)CCP(=O)(O)c1ccccc1

Response:
[0.00022, 0.0116]

---

- CONDITION_LABEL: in 2-ethoxyethanol, 338.25 K
READOUT_LABEL: solubility (mole fraction)
Numbers only.

Request: So what does the record say about solubility (mole fraction) for COc1ccc(P(=O)(c2ccc(OC)cc2)c2ccc(OC)cc2)cc1 ?
Response: 0.0401

---

- CONDITION_LABEL: in dichloromethane, 303.86 K
READOUT_LABEL: solubility (mole fraction)
Numbers only.

Request: So what does the record say about solubility (mole fraction) for O=P1(Oc2ccccc2)OCC2(CO1)COP(=O)(Oc1ccccc1)OC2 (stereo unspecified) ?
Response: 0.00146

---

Provide the reported solubility (mole fraction) of each item.
- CONDITION_LABEL: in cyclohexane, 323.65 K
Numbers only.

INSERT INTO results (substance_smiles, reported_value) VALUES
  ('COc1ccc(P(=O)(c2ccc(OC)cc2)c2ccc(OC)cc2)cc1', 0.00322);

Next item in the queue.
Request: So what does the record say about solubility (mole fraction) for COc1ccc(P(c2ccc(OC)cc2)c2ccc(OC)cc2)cc1 ?
Response: 0.00326

---

- CONDITION_LABEL: in dichloromethane, 303.19 K
READOUT_LABEL: solubility (mole fraction)

Request: So what does the record say about solubility (mole fraction) for O=P1(O)OCC2(CO1)COP(=O)(O)OC2 (stereo unspecified) ?
Response: 0.00045

---

- CONDITION_LABEL: in ethanol, 298.17 K
READOUT_LABEL: solubility (mole fraction)
Numbers only.

Request: So what does the record say about solubility (mole fraction) for COc1ccc(P(c2ccc(OC)cc2)c2ccc(OC)cc2)cc1 ?
Response: 0.00102

---

- CONDITION_LABEL: in acetonitrile, 311.25 K
READOUT_LABEL: solubility (mole fraction)
Numbers only.

Request: So what does the record say about solubility (mole fraction) for O=P1(O)OCC2(CO1)COP(=O)(O)OC2 (stereo unspecified) ?
Response: 0.0007

---

- CONDITION_LABEL: in acetic acid, 333.17 K
READOUT_LABEL: solubility (mole fraction)

Request: So what does the record say about solubility (mole fraction) for O=P1(O)OCC2(CO1)COP(=O)(O)OC2 (stereo unspecified) ?
Response: 0.00078

---

- CONDITION_LABEL: in water, 318.07 K
READOUT_LABEL: solubility (mole fraction)

Request: So what does the record say about solubility (mole fraction) for O=C(O)CCP(=O)(O)c1ccccc1 ?
Response: 0.00671

---

- CONDITION_LABEL: in water, 346.58 K
READOUT_LABEL: solubility (mole fraction)
Answers are plain numbers.

Request: So what does the record say about solubility (mole fraction) for O=P(O)(CO)c1ccccc1 ?
Response: 0.166

---

- CONDITION_LABEL: in methanol, 308.14 K
READOUT_LABEL: solubility (mole fraction)
Give bare numbers.

Request: So what does the record say about solubility (mole fraction) for COc1ccc(P(c2ccc(OC)cc2)c2ccc(OC)cc2)cc1 ?
Response: 0.00051
